- assay_protocol: Drug repurposing screens with cells derived from glioblastoma tumor samples (AID 1345199); note: % is set by controls: 0 for no effect and ±100 for the full control effect; nearly all actives have a fitted effect of over 40% in size
- condition_notes: GBM patient neurospheres viability, ATP luminescence, 48 h; at 46 µM (top of the series); tumour line A
Results filed as inconclusive are left out.
result_type: activity, negative = cell killing (%)

# compound, result_type, measured
measured = [
    ("CO/N=C(\\C(=O)N[C@@H]1C(=O)N2C(C(=O)O)=C(C[N+]3(C)CCCC3)CS[C@H]12)c1csc(N)n1", "activity, negative = cell killing", -4.98),
    ("O=C1c2ccccc2CN2C(=O)c3ccccc3CN12", "activity, negative = cell killing", -23.1),
    ("O=C(O)[C@H]1C(=CCO)O[C@H]2CC(=O)N12", "activity, negative = cell killing", -18.4),
    ("CCCCCCCCCCCCCC(=O)OCC(COP(=O)([O-])OCC[N+](C)(C)C)OC(=O)CCCCCCCCCCCCC (stereo not given)", "activity, negative = cell killing", -21.5),
    ("CCOC(=S)SSC(=S)OCC", "activity, negative = cell killing", -27.4),
]

----------
- study_target: Phospholipid hydroperoxide glutathione peroxidase GPX4 (Homo sapiens) (UniProt P36969)
- Sequence (P36969 whole entry, looked up): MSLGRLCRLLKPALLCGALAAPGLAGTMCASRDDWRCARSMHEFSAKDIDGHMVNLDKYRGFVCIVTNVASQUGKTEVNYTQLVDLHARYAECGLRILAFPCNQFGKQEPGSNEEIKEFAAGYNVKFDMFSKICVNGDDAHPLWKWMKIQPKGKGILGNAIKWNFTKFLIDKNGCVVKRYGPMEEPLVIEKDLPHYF
- assay_protocol: Primary qHTS Assay for Inhibitors of Recombinant Selenoprotein Glutathione Peroxidase 4 (GPX4) (AID 1845192); note: nearly all actives have a fitted effect of over 65% in size
- condition_notes: recombinant GPX4, GR-coupled NADPH fluorescence, 15 min; series mostly up to 50 µM
Inconclusive results are not listed. Calls of active or inactive are those of the source. Calls follow the shape of the dose curve; as a rule, active = well fitted inhibition curve with a large enough effect; inconclusive = small, poorly fitted or top-dose-only effect; inactive = flat fitted curve, though single readings scatter.
Possible outcomes: TRUE (active), FALSE (inactive)

# compound, classification
measured = [
    ("CC(C)CCCC(C)NC(C)C (stereo not drawn)", "FALSE"),
    ("NC(=S)NS(=O)(=O)c1ccc(N)cc1", "FALSE"),
    ("CC1=CC(=C(c2ccc(N)cc2)c2ccc(N)cc2)C=CC1=N", "FALSE"),
    ("O=C(O)c1ccc(NC(=O)[C@H](Cc2ccc(O)cc2)NC(=O)c2ccccc2)cc1", "FALSE"),
    ("CO[C@@H]1[C@H](OC(=O)/C=C/C=C/C=C/C=C/C(=O)O)CC[C@]2(CO2)[C@H]1[C@@]1(C)O[C@@H]1CC=C(C)C", "TRUE"),
    ("CC(/C=C/C=C(\\C)C(=O)O[C@@H]1O[C@H](CO[C@@H]2O[C@H](CO)[C@@H](O)[C@H](O)[C@H]2O)[C@@H](O)[C@H](O)[C@H]1O)=C\\C=C\\C=C(C)\\C=C\\C=C(/C)C(=O)O[C@@H]1O[C@H](CO[C@@H]2O[C@H](CO)[C@@H](O)[C@H](O)[C@H]2O)[C@@H](O)[C@H](O)[C@H]1O", "FALSE"),
    ("CCC[C@@H]1C[C@@H](C(=O)N[C@@H]([C@H]2O[C@H](SC)[C@H](O)[C@@H](O)[C@H]2O)[C@H](C)Cl)N(C)C1", "FALSE"),
    ("C=C[C@]1(C)C[C@@H](OC(=O)CSCCN(CC)CC)[C@]2(C)[C@H](C)CC[C@]3(CCC(=O)[C@H]32)[C@@H](C)[C@@H]1O", "FALSE"),
    ("CC(C)(CO)[C@@H](O)C(=O)NCCC(=O)NCCSSCCNC(=O)CCNC(=O)[C@H](O)C(C)(C)CO", "FALSE"),
    ("CC1(O)CCC(C(C)(C)O)CC1 (stereo not drawn)", "FALSE"),
    ("CCCCCCCCCCCCCC(=O)OCC(COP(=O)([O-])OCC[N+](C)(C)C)OC(=O)CCCCCCCCCCCCC (stereo not drawn)", "FALSE"),
    ("COc1cc(C)c(/C=C/C(C)=C/C=C/C(C)=C/C(=O)O)c(C)c1C", "TRUE"),
    ("Cc1cc(-c2ccc(N=Nc3ccc4c(S(=O)(=O)O)cc(S(=O)(=O)O)c(N)c4c3O)c(C)c2)ccc1N=Nc1ccc2c(S(=O)(=O)O)cc(S(=O)(=O)O)c(N)c2c1O", "FALSE"),
    ("CC[C@H]1OC(=O)[C@H](C)[C@@H](O[C@H]2C[C@@](C)(OC)[C@@H](O)[C@H](C)O2)[C@H](C)[C@@H](O[C@@H]2O[C@H](C)C[C@H](N(C)C)[C@H]2O)[C@](C)(O)C[C@@H](C)CN(C)[C@H](C)[C@@H](O)[C@]1(C)O", "FALSE"),
    ("CCCCCCCCCCCCCCCCCCCCCC(=O)Nc1ccn([C@@H]2O[C@H](CO)[C@@H](O)[C@@H]2O)c(=O)n1", "FALSE"),
    ("Cc1nc(NS(=O)(=O)c2ccc(N)cc2)nc(C)c1Br", "FALSE"),
    ("CCC(O)c1ccccc1 (stereo not drawn)", "FALSE"),
    ("CCCCC[C@H](O)/C=C/[C@@H]1[C@H]2C/C(=C/CCCC(=O)O)O[C@H]2C[C@H]1O", "FALSE"),
    ("O=C(O)Cc1cc(I)c(Oc2ccc(O)c(I)c2)c(I)c1", "FALSE"),
    ("c1ccc2ccccc2c1", "FALSE"),
    ("CC(C)C[C@H](NC(=O)[C@@H](COC(C)(C)C)NC(=O)[C@H](Cc1ccc(O)cc1)NC(=O)[C@H](CO)NC(=O)[C@H](Cc1c[nH]c2ccccc12)NC(=O)[C@H](Cc1cnc[nH]1)NC(=O)[C@@H]1CCC(=O)N1)C(=O)N[C@@H](CCCN=C(N)N)C(=O)N1CCC[C@H]1C(=O)NNC(N)=O", "FALSE"),
    ("CC1(C)[C@@H]2CC[C@@]1(C)[C@H](OC(=O)CSC#N)C2", "FALSE"),
    ("C=C1CC[C@H](O)C/C1=C\\C=C1/CCC[C@]2(C)[C@@H]([C@H](C)CCCC(C)C)CC[C@@H]12", "FALSE"),
    ("CCCCCc1ccc(C)cc1O", "FALSE"),
    ("CNCC(O)c1ccc(OC(=O)C(C)(C)C)c(OC(=O)C(C)(C)C)c1 (stereo not drawn)", "FALSE"),
    ("O=C(O)CCC(=O)c1ccc(-c2ccccc2)cc1", "FALSE"),
    ("CCCOc1cc(N)ccc1C(=O)OCCN(CC)CC", "FALSE"),
    ("CC1CC(OC(=O)C(O)c2ccccc2)CC(C)(C)C1 (stereo not drawn)", "FALSE"),
    ("Cc1cc(-c2ccc(N=Nc3c(S(=O)(=O)O)cc4cc(S(=O)(=O)O)cc(N)c4c3O)c(C)c2)ccc1N=Nc1c(S(=O)(=O)O)cc2cc(S(=O)(=O)O)cc(N)c2c1O", "FALSE"),
    ("CCCC(CCC)C(=O)OC1C[C@H]2CC[C@@H](C1)[N+]2(C)C (stereo partly drawn)", "FALSE"),
    ("OC[C@H]1O[C@@](CO)(O[C@H]2O[C@H](CO)[C@@H](O)[C@H](O)[C@H]2O)[C@@H](O)[C@@H]1O", "FALSE"),
    ("NC[C@H]1O[C@H](O[C@H]2[C@H](O)[C@@H](O[C@H]3O[C@H](CO)[C@@H](O)[C@H](N)[C@H]3O)[C@H](N)C[C@@H]2N)[C@H](N)C[C@@H]1O", "FALSE"),
    ("CCCc1ccc(C(=O)O)cc1", "FALSE"),
]

----------
- Test system: AA1029
- assay_protocol: qHTS profiling for inhibitors of Plasmodium falciparum proliferation (AID 504749); note: nearly all actives have a fitted effect of over 60% in size
- condition_notes: P. falciparum in erythrocytes, SYBR Green DNA, 72 h; series mostly up to 28.7 µM
Results filed as inconclusive are left out. Calls of active or inactive are those of the source. Calls follow the shape of the dose curve; as a rule, active = well fitted inhibition curve with a large enough effect; inconclusive = small, poorly fitted or top-dose-only effect; inactive = flat fitted curve, though single readings scatter.
Outcomes: 1 = active, -1 = inactive

# molecule, study_target, classification
data = [
    ("CC(O)CN(C)C (stereo not given)", "AA1029", -1),
    ("CC[C@H]1OC(=O)[C@H](C)[C@@H](O[C@H]2C[C@@](C)(OC)[C@@H](O)[C@H](C)O2)[C@H](C)[C@@H](O[C@@H]2O[C@H](C)C[C@H](N(C)C)[C@H]2O)[C@](C)(O)C[C@@H](C)CN(C)[C@H](C)[C@@H](O)[C@]1(C)O", "AA1029", 1),
    ("CC1CC(O)CC(C)(C)C1 (stereo not given)", "AA1029", -1),
    ("CC(CCc1ccc(O)cc1)NCC(O)c1ccc(O)cc1 (stereo not given)", "AA1029", -1),
    ("CCSc1ccc2c(c1)N(CCCN1CCN(C)CC1)c1ccccc1S2", "AA1029", -1),
]

----------
- Test system: PC15
- assay_protocol: qHTS profiling for inhibitors of Plasmodium falciparum proliferation (AID 504749); note: nearly all actives have a fitted effect of over 60% in size
- condition_notes: P. falciparum in erythrocytes, SYBR Green DNA, 72 h; series mostly up to 28.7 µM
Inconclusive results are not listed. Active and inactive are the calls of the source. The call rests on the fitted dose curve; in most records, active means well fitted inhibition curve with a large enough effect; inconclusive means small, poorly fitted or top-dose-only effect; inactive means flat fitted curve, though single readings scatter.
Classes used: active, inactive

# compound, classification
rows = [
    ("OCCCNc1ccccc1", "inactive"),
    ("NCC[C@H](O)C(=O)N[C@@H]1C[C@H](N)[C@@H](O[C@H]2O[C@H](CN)CC[C@H]2N)[C@H](O)[C@H]1O[C@H]1O[C@H](CO)[C@@H](O)[C@H](N)[C@H]1O", "inactive"),
    ("CCCCC[C@H](O)/C=C/[C@H]1[C@H](O)CC(=O)[C@@H]1C/C=C\\CCCC(=O)O", "inactive"),
    ("Cc1cc2nc3c(=O)[nH]c(=O)nc-3n(C[C@H](O)[C@H](O)[C@H](O)COP(=O)(O)OP(=O)(O)OC[C@H]3O[C@@H](n4cnc5c(N)ncnc54)[C@H](O)[C@@H]3O)c2cc1C", "inactive"),
    ("CCCCCCCCCCCCCCCCCC(=O)OC[C@@H](O)[C@H]1OC[C@H](O)[C@H]1O", "inactive"),
    ("Cn1cc(NC(=O)c2cc(NC(=O)c3cc(NC=O)cn3C)cn2C)cc1C(=O)NCCC(=N)N", "active"),
    ("Nc1nc(=O)n([C@@H]2CS[C@H](CO)O2)cc1F", "inactive"),
    ("O=C(O)[C@H]1C(=CCO)O[C@H]2CC(=O)N12", "inactive"),
    ("C/C=C/C=C/C(=O)O", "inactive"),
    ("CCC(Cc1c(I)cc(I)c(O)c1I)C(=O)O (stereo not given)", "inactive"),
]
